Ref: BigSolDB 2.1

conditions: in ethyl acetate, 328.15 K
observation-type: solubility (mole fraction)
Answers are plain numbers.

Form field: reported solubility (mole fraction) of "CC(=O)O[C@H]1NC(=O)[C@@H]1[C@@H](C)O[Si](C)(C)C(C)(C)C"
0.326

* * *

details: in methanol, 293.15 K
observation-type: solubility (mole fraction)
Give bare numbers.

Form field: reported solubility (mole fraction) of "CC(=O)O[C@H]1NC(=O)[C@@H]1[C@@H](C)O[Si](C)(C)C(C)(C)C"
0.0593

* * *

details: in acetonitrile, 333.15 K
observation-type: solubility (mole fraction)
Answers are plain numbers.

Form field: reported solubility (mole fraction) of "CC(=O)O[C@H]1NC(=O)[C@@H]1[C@@H](C)O[Si](C)(C)C(C)(C)C"
0.184
